# IC50 listing for each entry below
study-system: human ACC1 (acetyl-coenzyme A carboxylase alpha transcript variant 1) (Homo sapiens)
Construct: FLAG (C); made in house; host or cells: baculovirus-infected insect cells (Hi5)
measurement-description: Human ACC1 enzyme assay, Assay B1 (ADP-Glo)
Format: biochemical
assay-setup: Assay B1; read-out: ACC 1 (=B1) IC50
readout: IC50 (nM)

{"compound": "Cc1ccc(-c2ccc(Cl)cc2)cc1C1=C(O)C2(CC2)NC1=O", "assay-result": 650}
{"compound": "Cc1ccc(-c2ccc(Cl)cc2)cc1-c1c(O)c2ccc(F)cc2[nH]c1=O", "assay-result": 174}
{"compound": "Cc1ccc(-c2ccc(Cl)c(F)c2)cc1C1=C(O)[C@]2(CC[C@H](C(F)(F)F)CC2)NC1=O", "assay-result": 63}
{"compound": "Cc1ccc(-c2ccc(Cl)cc2)cc1C1=C(O)CN(C2CCCCC2)C1=O", "assay-result": 2680}
{"compound": "Cc1ccc(-c2ccc(Cl)cc2)cc1C1=C(O)C2(CCCOC2)NC1=O (stereo not drawn)", "assay-result": 246}
{"compound": "O=c1[nH]c2cc(Cl)ccc2c(O)c1-c1cc(-c2ccc(Cl)cc2)ccc1Cl", "assay-result": 191}
{"compound": "COCCC1CCCC2(C1)NC(=O)C(c1c(C)ccc(-c3ccc(Cl)cc3)c1C)=C2O (stereo not drawn)", "assay-result": 924}
{"compound": "Cc1ccc(-c2ccc(F)c(F)c2)cc1C1=C(O)[C@]2(CC[C@](O)(C(F)(F)F)CC2)NC1=O", "assay-result": 467}
{"compound": "Cc1ccc(-c2ccc(Cl)cc2)cc1C1C(=O)N2CCOCCN2C1=O", "assay-result": 1280}
{"compound": "Cc1ccc(-c2ccc(Cl)cc2Cl)cc1C1=C(O)C2(CCCCC2)CC1=O", "assay-result": 263}
{"compound": "COCCC1(C)NC(=O)C(c2cc(-c3ccc(Cl)cc3)ccc2C)=C1O (stereo not drawn)", "assay-result": 3190}
{"compound": "CO[C@H]1CC[C@]2(CC1)NC(=O)C(c1cc(-c3ccc(Cl)c(F)c3)ccc1C)=C2O", "assay-result": 102}
{"compound": "Cc1ccc(-c2ccc(Cl)c(C3=C(O)C4(CCOCC4)NC3=O)c2)cc1F", "assay-result": 1980}
{"compound": "Cc1ccc(-c2ccc(C(F)(F)F)cc2)cc1-c1c(O)c2ccc(Cl)cc2[nH]c1=O", "assay-result": 1280}
{"compound": "Cc1ccc(-c2ccc(Cl)cc2)cc1C1C(=O)N2CC(C)(F)CN2C1=O", "assay-result": 783}
{"compound": "Cc1ccc(-c2ccc(C(F)(F)F)cc2)cc1-c1c(O)c2ccc(F)cc2[nH]c1=O", "assay-result": 1410}
{"compound": "CC1COC2(CCC3(CC2)NC(=O)C(c2cc(-c4ccc(Cl)cc4)ccc2Cl)=C3O)OC1 (stereo not drawn)", "assay-result": 838}
{"compound": "Cc1ccc(-c2ccc(Cl)cc2)cc1C1=C(O)C2(CCC(C(C)C)CC2)NC1=O (stereo not drawn)", "assay-result": 230}

----------
# pIC50 listing for each entry below
study-system: human ACC2 (acetyl-coenzyme A carboxylase 2) (Homo sapiens, UniProt O00763)
Sequence (O00763 27-2458 limits assumed): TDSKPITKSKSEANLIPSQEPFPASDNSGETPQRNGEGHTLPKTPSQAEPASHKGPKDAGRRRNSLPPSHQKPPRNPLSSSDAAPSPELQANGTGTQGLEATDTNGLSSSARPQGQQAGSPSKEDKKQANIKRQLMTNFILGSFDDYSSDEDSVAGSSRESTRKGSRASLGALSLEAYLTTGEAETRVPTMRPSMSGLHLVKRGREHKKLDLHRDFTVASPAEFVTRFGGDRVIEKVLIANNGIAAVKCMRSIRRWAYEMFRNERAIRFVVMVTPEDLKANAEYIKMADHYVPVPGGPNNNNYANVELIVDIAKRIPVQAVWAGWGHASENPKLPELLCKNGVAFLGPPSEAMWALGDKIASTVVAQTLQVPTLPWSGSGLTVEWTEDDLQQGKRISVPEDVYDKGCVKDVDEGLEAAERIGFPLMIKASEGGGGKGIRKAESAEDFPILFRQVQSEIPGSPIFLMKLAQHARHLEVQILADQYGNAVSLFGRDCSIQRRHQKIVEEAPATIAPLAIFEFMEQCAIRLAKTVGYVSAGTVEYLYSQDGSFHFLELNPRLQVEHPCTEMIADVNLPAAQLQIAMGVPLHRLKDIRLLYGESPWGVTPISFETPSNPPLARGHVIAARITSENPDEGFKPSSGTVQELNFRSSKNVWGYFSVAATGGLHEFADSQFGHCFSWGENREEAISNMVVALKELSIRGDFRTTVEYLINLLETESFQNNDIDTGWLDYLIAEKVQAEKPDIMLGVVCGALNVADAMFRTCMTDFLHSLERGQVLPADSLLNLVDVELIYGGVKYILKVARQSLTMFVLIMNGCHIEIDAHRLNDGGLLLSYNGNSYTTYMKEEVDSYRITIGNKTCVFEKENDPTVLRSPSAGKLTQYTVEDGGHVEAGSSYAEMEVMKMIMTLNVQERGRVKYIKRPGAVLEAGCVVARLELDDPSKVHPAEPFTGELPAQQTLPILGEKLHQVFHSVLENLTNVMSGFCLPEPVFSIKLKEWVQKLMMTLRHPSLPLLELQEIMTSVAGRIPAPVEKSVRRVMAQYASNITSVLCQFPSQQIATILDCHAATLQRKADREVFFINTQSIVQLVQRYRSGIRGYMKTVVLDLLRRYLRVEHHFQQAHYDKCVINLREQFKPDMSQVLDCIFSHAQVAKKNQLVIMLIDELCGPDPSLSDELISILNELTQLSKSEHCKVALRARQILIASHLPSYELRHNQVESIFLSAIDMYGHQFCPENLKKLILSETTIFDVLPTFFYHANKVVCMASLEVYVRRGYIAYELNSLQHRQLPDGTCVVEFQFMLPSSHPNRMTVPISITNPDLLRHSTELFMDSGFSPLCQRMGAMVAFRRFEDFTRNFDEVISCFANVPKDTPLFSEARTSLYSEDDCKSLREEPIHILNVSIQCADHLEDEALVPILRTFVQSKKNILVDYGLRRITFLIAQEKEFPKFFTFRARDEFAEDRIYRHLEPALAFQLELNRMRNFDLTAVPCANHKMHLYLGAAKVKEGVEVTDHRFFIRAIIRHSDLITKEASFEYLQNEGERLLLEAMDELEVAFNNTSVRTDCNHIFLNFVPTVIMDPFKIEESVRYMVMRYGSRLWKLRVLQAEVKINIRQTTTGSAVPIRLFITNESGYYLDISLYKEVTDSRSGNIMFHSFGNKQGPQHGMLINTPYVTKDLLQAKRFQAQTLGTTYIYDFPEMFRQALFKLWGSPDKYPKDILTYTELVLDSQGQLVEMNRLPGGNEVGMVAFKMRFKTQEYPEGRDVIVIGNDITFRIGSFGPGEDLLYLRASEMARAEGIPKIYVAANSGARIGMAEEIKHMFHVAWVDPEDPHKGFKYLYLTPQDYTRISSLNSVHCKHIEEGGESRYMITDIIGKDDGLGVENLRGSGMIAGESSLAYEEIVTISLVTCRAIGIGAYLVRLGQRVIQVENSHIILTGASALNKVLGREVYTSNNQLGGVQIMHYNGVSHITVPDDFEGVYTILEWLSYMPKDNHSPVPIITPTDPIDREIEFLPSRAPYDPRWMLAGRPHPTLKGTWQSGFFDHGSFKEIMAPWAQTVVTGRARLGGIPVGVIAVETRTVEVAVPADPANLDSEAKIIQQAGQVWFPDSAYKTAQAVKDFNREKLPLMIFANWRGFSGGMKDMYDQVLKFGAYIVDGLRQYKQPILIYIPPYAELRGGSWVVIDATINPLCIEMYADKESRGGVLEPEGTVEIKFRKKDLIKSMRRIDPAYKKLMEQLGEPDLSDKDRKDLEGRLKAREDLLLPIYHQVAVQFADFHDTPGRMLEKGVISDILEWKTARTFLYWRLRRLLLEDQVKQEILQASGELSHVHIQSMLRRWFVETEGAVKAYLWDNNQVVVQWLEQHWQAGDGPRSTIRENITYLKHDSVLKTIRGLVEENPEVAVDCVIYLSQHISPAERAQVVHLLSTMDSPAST
measurement-description: Human ACC2 enzyme assay, Assay B2 (ADP-Glo)
pIC50: −log10 of the molar value.

{"compound": "Cc1ccc(-c2ccc(F)c(F)c2)cc1C1=C(O)C2(CCCCC2)NC1=O [1-115]", "qualifier-symbol": "=", "pIC50": 4.99}
{"compound": "COC1CCC2(CC1)OC(=O)C(c1cc(-c3ccc(Cl)cc3)ccc1C)=C2O (stereo not drawn) [2-39]", "qualifier-symbol": "=", "pIC50": 5.28}
{"compound": "Cc1ccc(-c2ccc(Cl)cc2)cc1C1=C(O)C2(CCCCC2)CNC1=O [9-3]", "qualifier-symbol": "<", "pIC50": 4.70}
{"compound": "CO[C@H]1CC[C@]2(CC1)NC(=O)C(c1c(C)ccc(-c3ccc(Cl)cc3)c1C)=C2O [1-121]", "qualifier-symbol": "=", "pIC50": 6.00}
{"compound": "COCCC1CCCC2(C1)OC(=O)C(c1cc(-c3ccc(Cl)cc3)ccc1C)=C2O (stereo not drawn) [2-18]", "qualifier-symbol": "=", "pIC50": 4.91}
{"compound": "Cc1ccc(-c2ccc(Cl)c(F)c2)cc1C1=C(O)[C@]2(CC[C@H](C(F)(F)F)CC2)NC1=O [1-90]", "qualifier-symbol": "=", "pIC50": 6.23}
{"compound": "COC1CCC2(CC1)NC(=O)C(c1cc(-c3ccc(Cl)cc3)c(C)cc1C)=C2O (stereo not drawn) [1-7]", "qualifier-symbol": "=", "pIC50": 6.48}
{"compound": "Cc1ccc(-c2ccc(Cl)cc2)cc1C1=C(O)C2(CCC3(CC2)OC(C)C(C)O3)NC1=O (stereo not drawn) [1-64]", "qualifier-symbol": "<", "pIC50": 4.70}
{"compound": "CC(C)[C@H]1CC[C@]2(CC1)NC(=O)C(c1cc(-c3ccc(Cl)cc3)ccc1Cl)=C2O [1-141]", "qualifier-symbol": "=", "pIC50": 5.86}

----------
study-system: human ACC1 (acetyl-coenzyme A carboxylase alpha transcript variant 1) (Homo sapiens)
Construct: FLAG (C); made in house; host or cells: baculovirus-infected insect cells (Hi5)
measurement-description: Human ACC1 enzyme assay, Assay B1 (ADP-Glo)
Type: biochemical
assay-setup: Assay B1, ADP-Glo; read-out: ACC 1 (=B1) IC50

{"smiles-string": "Cc1ccc(-c2ccc(Cl)cc2)c(C)c1C1=C(O)[C@]2(CC[C@]3(CCCO3)CC2)OC1=O", "IC50 (nM)": 6110}
{"smiles-string": "Cc1ccc(-c2ccc(F)cc2)cc1C1=C(O)[C@]2(CC[C@@]3(CCCO3)CC2)OC1=O", "IC50 (nM)": 128}
{"smiles-string": "Cc1cc(C)c(-c2ccc(Cl)cc2)cc1C1=C(O)C2(CCOCC2)OC1=O", "IC50 (nM)": 425}
{"smiles-string": "Cc1cc(C)c(-c2ccc(Cl)cc2)cc1C1=C(O)C2(CCSCC2)OC1=O", "IC50 (nM)": 246}

----------
# IC50 listing for each entry below
study-system: human ACC2 (acetyl-coenzyme A carboxylase 2) (Homo sapiens, UniProt O00763)
measurement-description: Human ACC2 enzyme assay, Assay B2 (ADP-Glo);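 further: human ACC2 activity read as ADP product, detected by luciferase glow luminescence after residual ATP removal, enzyme near 2 ng/µl in linear range, detection steps at 22 °C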

{"compound": "CO[C@H]1CC[C@]2(CC1)NC(=O)C(c1cc(-c3ccc(Cl)cc3)ccc1C)=C2O", "qualifier-symbol": "=", "IC50 (µM)": 0.822}
{"compound": "COCC1CCC2(CC1)OC(=O)C(c1cc(-c3ccc(Cl)cc3)ccc1Cl)=C2O (stereo not shown)", "qualifier-symbol": "=", "IC50 (µM)": 5.31}
{"compound": "Cc1cc(C)c(-c2ccc(Cl)cc2)cc1C1=C(O)[C@]2(CC[C@@]3(CCCO3)CC2)OC1=O", "qualifier-symbol": "=", "IC50 (µM)": 0.243}
{"compound": "O=C1N[C@]2(CC[C@@H](C(F)(F)F)CC2)C(O)=C1c1cc(-c2ccc(Cl)cc2)ccc1Cl", "qualifier-symbol": "=", "IC50 (µM)": 2.85}
{"compound": "Cc1ccc(-c2ccc(Cl)cc2)cc1C1=C(O)[C@]2(CC[C@](O)(C(F)(F)F)CC2)NC1=O", "qualifier-symbol": "=", "IC50 (µM)": 6.59}
{"compound": "CO[C@H]1CC[C@]2(CC1)NC(=O)C(c1cc(-c3ccc(Cl)cc3)ccc1Cl)=C2O", "qualifier-symbol": "=", "IC50 (µM)": 2.26}
{"compound": "Cc1ccc(-c2ccc(Cl)cc2)cc1C1=C(O)C2(CCCC2)CC1=O", "qualifier-symbol": "=", "IC50 (µM)": 4.63}
{"compound": "Cc1ccc(-c2ccc(Cl)cc2)cc1C1=C(O)[C@]2(CC[C@H](C(F)(F)F)CC2)NC1=O", "qualifier-symbol": "=", "IC50 (µM)": 1.08}
{"compound": "CO[C@H]1CC[C@]2(CC1)NC(=O)C(c1cc(-c3ccc(F)c(F)c3)ccc1Cl)=C2O", "qualifier-symbol": ">", "IC50 (µM)": 20}
{"compound": "Cc1ccc(-c2ccc(F)cc2)c(C)c1C1=C(O)C2(CCC(OCC(F)(F)F)CC2)NC1=O (stereo not shown)", "qualifier-symbol": "=", "IC50 (µM)": 7.89}
{"compound": "Cc1ccc(-c2ccc(F)cc2)cc1C1=C(O)C2(CCC(OCC(F)(F)F)CC2)NC1=O (stereo not shown)", "qualifier-symbol": "=", "IC50 (µM)": 19}
{"compound": "Cc1ccc(-c2ccc(F)c(F)c2)cc1C1=C(O)[C@]2(CC[C@H](C(F)(F)F)CC2)NC1=O", "qualifier-symbol": "=", "IC50 (µM)": 4.41}
{"compound": "CO[C@H]1CC[C@]2(CC1)NC(=O)C(c1c(C)ccc(-c3ccc(F)cc3)c1C)=C2O", "qualifier-symbol": "=", "IC50 (µM)": 8.83}
{"compound": "Cc1ccc(-c2ccc(Cl)cc2)c(C)c1C1=C(O)[C@]2(CC[C@]3(CCCO3)CC2)OC1=O", "qualifier-symbol": ">", "IC50 (µM)": 20}
{"compound": "Cc1cc(C)c(-c2ccc(Cl)cc2)cc1C1=C(O)C2(CCC(C(F)(F)F)CC2)NC1=O (stereo not shown)", "qualifier-symbol": "=", "IC50 (µM)": 0.269}
{"compound": "COC[C@H]1CC[C@]2(CC1)NC(=O)C(c1cc(-c3ccc(Cl)c(F)c3)ccc1Cl)=C2O", "qualifier-symbol": "=", "IC50 (µM)": 2.71}
{"compound": "COCC1CCC2(CC1)NC(=O)C(c1cc(-c3ccc(Cl)cc3)ccc1Cl)=C2O (stereo not shown)", "qualifier-symbol": "=", "IC50 (µM)": 1.35}
{"compound": "Cc1cc(C)c(-c2ccc(Cl)cc2)c(C)c1C1=C(O)C2(CCCCC2)OC1=O", "qualifier-symbol": "=", "IC50 (µM)": 5.42}
{"compound": "CC1(C)COC2(CCC3(CC2)NC(=O)C(c2cc(-c4ccc(Cl)cc4)ccc2Cl)=C3O)OC1", "qualifier-symbol": "=", "IC50 (µM)": 14.7}
{"compound": "Cc1ccc(-c2ccc(Cl)cc2)cc1C1=C(O)C2(CCCC2)NC1=O", "qualifier-symbol": "=", "IC50 (µM)": 9.21}
{"compound": "Cc1ccc(-c2ccc(Cl)c(Cl)c2)cc1-c1c(O)c2ccc(Cl)cc2[nH]c1=O", "qualifier-symbol": "=", "IC50 (µM)": 11.2}
{"compound": "O=C1NC2(CCC3(CC2)OCCCO3)C(O)=C1c1cc(-c2ccc(Cl)cc2)ccc1Cl", "qualifier-symbol": "=", "IC50 (µM)": 19.9}
{"compound": "Cc1ccc(-c2ccc(C(F)(F)F)cc2)cc1C1=C(O)C2(CCCCC2)NC1=O", "qualifier-symbol": ">", "IC50 (µM)": 20}
{"compound": "COC1CCC2(CC1)NC(=O)C(c1c(C)cc(C)c(-c3ccc(Cl)cc3)c1C)=C2O (stereo not shown)", "qualifier-symbol": "=", "IC50 (µM)": 0.276}
{"compound": "Cc1ccc(-c2ccc(Cl)cc2)cc1C1=C(O)C2(CCC(OCC(F)(F)F)CC2)NC1=O (stereo not shown)", "qualifier-symbol": "=", "IC50 (µM)": 2.01}
{"compound": "O=C1N[C@]2(CCC[C@H](C(F)(F)F)C2)C(O)=C1c1cc(-c2ccc(Cl)cc2)ccc1Cl", "qualifier-symbol": "=", "IC50 (µM)": 7.49}
{"compound": "COCC1CCC2(CC1)OC(=O)C(c1cc(-c3ccc(Cl)cc3)ccc1C)=C2O (stereo not shown)", "qualifier-symbol": "=", "IC50 (µM)": 1.72}
{"compound": "Cc1c(F)cc(-c2ccc(F)c(F)c2)cc1C1=C(O)[C@]2(CC[C@H](C(F)(F)F)CC2)NC1=O", "qualifier-symbol": ">", "IC50 (µM)": 20}
{"compound": "CO[C@H]1CC[C@]2(CC1)NC(=O)C(c1cc(-c3ccc(F)c(F)c3)ccc1C)=C2O", "qualifier-symbol": "=", "IC50 (µM)": 12.5}
{"compound": "COCCC1CCC2(CC1)NC(=O)C(c1c(C)ccc(-c3ccc(Cl)cc3)c1C)=C2O (stereo not shown)", "qualifier-symbol": "=", "IC50 (µM)": 1.68}
{"compound": "COC1CCC2(CC1)OC(=O)C(c1cc(-c3ccc(Cl)cc3)c(C)cc1C)=C2O (stereo not shown)", "qualifier-symbol": "=", "IC50 (µM)": 0.244}
{"compound": "Cc1cc(F)c(-c2ccc(Cl)cc2)cc1C1=C(O)[C@]2(CC[C@](O)(C(F)(F)F)CC2)NC1=O", "qualifier-symbol": "=", "IC50 (µM)": 13.4}
{"compound": "Cc1cc(C)c(-c2ccc(Cl)cc2)cc1C1=C(O)C2(CCCCC2)SC1=O", "qualifier-symbol": "=", "IC50 (µM)": 1.15}
{"compound": "Cc1ccc(-c2ccc(Cl)cc2)cc1C1=C(O)C2(CCCCCCC2)NC1=O", "qualifier-symbol": "=", "IC50 (µM)": 2.33}
